Tested on: Setaria faberi (SETFA)
assay-text: Pre-emergence herbicidal glasshouse test
Type: in vivo
test-parameters: sprayed after one day cultivation, 250 g/ha, evaluated after 13 days, five-point scale
Overview of recorded percentage damage caused to the plant, SETFA for various compounds
quantity-measured: percentage damage caused to the plant, SETFA

| input-smiles | observed |
| --- | --- |
| Fc1cccc(Sc2ncc(Cl)s2)c1-c1cc(C(F)F)no1 | 2 (2=21-40%) |
| FC(F)c1cc(-c2c(Br)cccc2Oc2ncc(Br)s2)on1 | 4 (4=61-80%) |
| Fc1cccc(-c2cc(C(F)F)no2)c1Oc1ncc(Cl)s1 | 4 (4=61-80%) |
| FC(F)c1cc(-c2ccccc2Oc2ncc(Cl)s2)on1 | 4 (4=61-80%) |
| Cc1cnc(Oc2cccc(F)c2-c2cc(C(F)F)no2)s1 | 4 (4=61-80%) |
| FC(F)c1cc(-c2c(Br)cccc2Oc2ncc(C(F)F)s2)on1 | 5 (5=81-100%) |
| FC(F)c1cc(-c2c(Br)cccc2Oc2nc(C(F)F)c(Cl)s2)on1 | 1 (1=0-20%) |

----------
Tested on: Echinochloa crus-galli (ECHCG)
assay-text: Pre-emergence herbicidal glasshouse test
Format: in vivo
test-parameters: sprayed after one day cultivation, 250 g/ha, evaluated after 13 days, five-point scale
Overview of recorded percentage damage caused to the plant, ECHCG for various compounds
quantity-measured: percentage damage caused to the plant, ECHCG

| input-smiles | subject-of-test | observed |
| --- | --- | --- |
| Fc1cccc(Oc2nccs2)c1-c1cc(C(F)F)no1 | Echinochloa crus-galli (ECHCG) | 2 (2=21-40%) |
| Fc1cccc(Oc2ncc(Cl)s2)c1-c1cc(C(F)F)no1 | Echinochloa crus-galli (ECHCG) | 5 (5=81-100%) |
| N#Cc1cccc(Oc2ncc(Cl)s2)c1-c1cc(C(F)F)no1 | Echinochloa crus-galli (ECHCG) | 4 (4=61-80%) |
| Fc1cccc(Oc2nc(C(F)F)c(Cl)s2)c1-c1cc(C(F)F)no1 | Echinochloa crus-galli (ECHCG) | 1 (1=0-20%) |
| FC(F)c1cc(-c2c(Br)cccc2Oc2nc(C(F)(F)F)cs2)on1 | Echinochloa crus-galli (ECHCG) | 3 (3=41-60%) |
| Fc1cccc(Oc2ncc(C(F)F)s2)c1-c1cc(C(F)F)no1 | Echinochloa crus-galli (ECHCG) | 5 (5=81-100%) |
| FC(F)c1cc(-c2c(Cl)cccc2Oc2nc(Cl)c(Cl)s2)on1 | Echinochloa crus-galli (ECHCG) | 1 (1=0-20%) |
| Fc1cccc(Oc2ncc(Br)s2)c1-c1cc(C(F)F)no1 | Echinochloa crus-galli (ECHCG) | 4 (4=61-80%) |
| Cc1cnc(Oc2cccc(F)c2-c2cc(C(F)F)no2)s1 | Echinochloa crus-galli (ECHCG) | 3 (3=41-60%) |
| Fc1cccc(Oc2nc(C(F)F)cs2)c1-c1cc(C(F)F)no1 | Echinochloa crus-galli (ECHCG) | 3 (3=41-60%) |
| FC(F)c1cc(-c2c(Br)cccc2Oc2nc(Cl)c(Cl)s2)on1 | Echinochloa crus-galli (ECHCG) | 4 (4=61-80%) |
| Fc1cccc(Oc2nc(Cl)cs2)c1-c1cc(C(F)F)no1 | Echinochloa crus-galli (ECHCG) | 1 (1=0-20%) |
| Fc1cccc(Oc2nc(Br)cs2)c1-c1cc(C(F)F)no1 | Echinochloa crus-galli (ECHCG) | 3 (3=41-60%) |
| N#Cc1cccc(Oc2ncc(Br)s2)c1-c1cc(C(F)F)no1 | Echinochloa crus-galli (ECHCG) | 4 (4=61-80%) |
| FC(F)c1cc(-c2c(Br)cccc2Oc2ncc(Br)s2)on1 | Echinochloa crus-galli (ECHCG) | 5 (5=81-100%) |
| N#Cc1cccc(Oc2ncc(C(F)F)s2)c1-c1cc(C(F)F)no1 | Echinochloa crus-galli (ECHCG) | 5 (5=81-100%) |
| FC(F)c1cc(-c2c(Cl)cccc2Oc2ncc(Cl)s2)on1 | Echinochloa crus-galli (ECHCG) | 5 (5=81-100%) |
| FC(F)c1cc(-c2ccccc2Oc2ncc(Cl)s2)on1 | Echinochloa crus-galli (ECHCG) | 4 (4=61-80%) |
| FC(F)c1cc(-c2c(Cl)cccc2Oc2ncc(C(F)F)s2)on1 | Echinochloa crus-galli (ECHCG) | 5 (5=81-100%) |
